Cited source for all entries: ChEMBL document CHEMBL2203229

Tested on: Escherichia coli
ASSAY_REMARKS: Antibacterial activity against Escherichia coli K-12 BAS901 harboring genetically modified imp-4213, zab4292::Tn5 assessed as growth inhibition after 16 hrs by broth dilution method
Format: functional
ASSAY_SETUP: K-12 BAS901, 16 h
Exercise: state measured MIC for each of the compounds provided.

CCCCCCCCCCCCO[C@@H]1O[C@@H](C)[C@H](O[C@@H]2O[C@@H](C)[C@H](OC(C)=O)[C@@H](O[C@@H]3O[C@@H](C)[C@H](O)[C@@H](O[C@@H]4O[C@@H](C)[C@H](OC(C)=O)[C@@H](O)[C@H]4O)[C@H]3OC(C)=O)[C@H]2O)[C@@H](O)[C@H]1O = 16 µM
CCCCCCCCCCCCO[C@@H]1O[C@@H](C)[C@H](O[C@@H]2O[C@@H](C)[C@H](OC(C)=O)[C@@H](O[C@@H]3O[C@@H](C)[C@H](OC(C)=O)[C@@H](O[C@@H]4O[C@@H](C)[C@H](O)[C@@H](O)[C@H]4OC(C)=O)[C@H]3OC(C)=O)[C@H]2O)[C@@H](O)[C@H]1O = > 64 µM
CCCCCCCCCCCCO[C@@H]1O[C@@H](C)[C@H](O[C@@H]2O[C@@H](C)[C@H](OC(C)=O)[C@@H](O[C@@H]3O[C@@H](C)[C@H](OC(C)=O)[C@@H](O[C@@H]4O[C@@H](C)[C@H](OC(C)=O)[C@@H](O)[C@H]4O)[C@H]3OC(C)=O)[C@H]2O)[C@@H](O)[C@H]1O = > 64 µM
CCCCCCCCCCCCO[C@@H]1O[C@@H](C)[C@H](O[C@@H]2O[C@@H](C)[C@H](OC(C)=O)[C@@H](O[C@@H]3O[C@@H](C)[C@H](OC(C)=O)[C@@H](O[C@@H]4O[C@@H](C)[C@H](O)[C@@H](O)[C@H]4O)[C@H]3OC(C)=O)[C@H]2O)[C@@H](O)[C@H]1O = > 64 µM
CCCCCCCCCCCCO[C@@H]1O[C@@H](C)[C@H](O[C@@H]2O[C@@H](C)[C@H](OC(C)=O)[C@@H](O[C@@H]3O[C@@H](C)[C@H](O)[C@@H](OC(C)=O)[C@H]3OC(C)=O)[C@H]2O)[C@@H](O)[C@H]1O = 32 µM

Quick batch: MIC for everything below.
1. CCCCCCCCCCCCO[C@@H]1O[C@@H](C)[C@H](O[C@@H]2O[C@@H](C)[C@H](OC(C)=O)[C@@H](O[C@@H]3O[C@@H](C)[C@H](O)[C@@H](O[C@@H]4O[C@@H](C)[C@H](O)[C@@H](O)[C@H]4O)[C@H]3OC(C)=O)[C@H]2O)[C@@H](O)[C@H]1O
2. CCCCCCCCCCCCO[C@@H]1O[C@@H](C)[C@H](O[C@@H]2O[C@@H](C)[C@H](OC(C)=O)[C@@H](O[C@@H]3O[C@@H](C)[C@H](O)[C@@H](O[C@@H]4O[C@@H](C)[C@H](OC(C)=O)[C@@H](OC(C)=O)[C@H]4OC(C)=O)[C@H]3OC(C)=O)[C@H]2O)[C@@H](O)[C@H]1O
3. CCCCCCCCCCCCO[C@@H]1O[C@@H](C)[C@H](O[C@@H]2O[C@@H](C)[C@H](OC(C)=O)[C@@H](O[C@@H]3O[C@@H](C)[C@H](OC(C)=O)[C@@H](O[C@@H]4O[C@@H](C)[C@H](OC(C)=O)[C@@H](OC(C)=O)[C@H]4OC(C)=O)[C@H]3OC(C)=O)[C@H]2O)[C@@H](O)[C@H]1O
4. CCCCCCCCCCCCO[C@@H]1O[C@@H](C)[C@H](O[C@@H]2O[C@@H](C)[C@H](OC(C)=O)[C@@H](O[C@@H]3O[C@@H](C)[C@H](OC(C)=O)[C@@H](O[C@@H]4O[C@@H](C)[C@H](OC(C)=O)[C@@H](O)[C@H]4OC(C)=O)[C@H]3OC(C)=O)[C@H]2O)[C@@H](O)[C@H]1O
5. CCCCCCCCCCCCO[C@@H]1O[C@@H](C)[C@H](O[C@@H]2O[C@@H](C)[C@H](OC(C)=O)[C@@H](O[C@@H]3O[C@@H](C)[C@H](OC(C)=O)[C@@H](O)[C@H]3OC(C)=O)[C@H]2O)[C@@H](O)[C@H]1O

Out:
["16 µM", "> 64 µM", "> 64 µM", "> 64 µM", "> 64 µM"]
